Here is a set of compounds with reported pIC50 for ALK tyrosine kinase receptor (Homo sapiens, UniProt Q9UM73), compiled from the literature.
pIC50: −log10 of the molar value.
MEASURE_NAME: pIC50

                            chemical_string                              assay_system  experimental_value
0  N#Cc1c(-c2ccc(O)cc2)nc2[nH]ncc2c1-c1ccco1  ALK tyrosine kinase receptor (Homo sapiens, UniProt Q9UM73)              > 7.00
1  Cc1c(C#N)c(-c2ccc(O)cc2F)nc2[nH]nc(-c3csc(C4CCNCC4)n3)c12  ALK tyrosine kinase receptor (Homo sapiens, UniProt Q9UM73)              > 7.00
2  O=C(c1ccccc1)N1CCN(C(=O)c2ccc(-c3cnc4c(c3)N(Cc3cc(Cl)ccc3C(F)(F)F)CCN4)cc2)CC1  ALK tyrosine kinase receptor (Homo sapiens, UniProt Q9UM73)              > 7.00
3  CCN1CCC(Nc2ccc3c(c2)/C(=C(\c2ccc(Cl)cc2)c2nc(C)c[nH]2)C(=O)N3)CC1  ALK tyrosine kinase receptor (Homo sapiens, UniProt Q9UM73)              > 7.30
